Kindly supply the reported log10 of IC50 values for the records listed here.
# Test system: pERK in MKN1 cells
# TEST NAME: Inhibition of KRas phosphorylation of ERK (Cisbio HTRF pERK assay)
# TEST CONTEXT: Homo sapiens, MKN-1, 3 h, read-out: Inhibition (HTRF IC50) of KRas-mediated Phosphorylation of ERK, MKN1
Quick note: numbers are log10 of IC50, with nM as the unit.

I am curious: what log10 of IC50 value has been reported for CCc1c(F)ccc2cc(O)cc(-c3ncc4c(N5CCN6C(=O)NCC6C5)nc(OC[C@@]56CCCN5C[C@H](F)C6)nc4c3F)c12 (stereo partly drawn) ? 3.04

Record: CCc1c(F)ccc2cc(O)cc(-c3ncc4c(NCc5ccc6nonc6c5)nc(OC[C@@]56CCCN5C[C@H](F)C6)nc4c3F)c12 1.59

And CCc1c(F)ccc2cc(O)cc(-c3ncc4c(N5C[C@H](O)CC[C@H]5C)nc(OC[C@@]56CCCN5C[C@H](F)C6)nc4c3F)c12 ? 0.70

Follow-up entry: NS(=O)(=O)CC1CCCN(c2nc(OC[C@@]34CCCN3C[C@H](F)C4)nc3c(F)c(-c4cc(O)cc5ccc(F)c(Cl)c45)ncc23)C1 (stereo partly drawn) 1.51

And the next one, CCc1c(F)ccc2cc(O)cc(-c3ncc4c(N5CCCC(O)(C(F)F)C5)nc(OC[C@@]56CCCN5C[C@H](F)C6)nc4c3F)c12 (stereo partly drawn) ? 0.85

Could you do the same for CCc1c(F)ccc2cc(O)cc(-c3ncc4c(N5CCCC(O)CC5)nc(OC[C@@]56CCCN5C[C@H](F)C6)nc4c3F)c12 (stereo in doubt) , please? 1.04

Can you check CCc1c(F)ccc2cc(O)cc(-c3ncc4c(N5C[C@H](O)CC[C@@H](O)C5)nc(OC[C@@]56CCCN5C[C@H](F)C6)nc4c3F)c12 next? 1.61

Repeat for the following compound: CCc1c(F)ccc2cc(O)cc(-c3ncc4c(N5CCCOC(C)(C)C5)nc(OC[C@@]56CCCN5C[C@H](F)C6)nc4c3F)c12 2.35

Another compound to check: CCc1c(F)ccc2cc(O)cc(-c3ncc4c(N5CCCC6(CCC6O)C5)nc(OC[C@@]56CCCN5C[C@H](F)C6)nc4c3F)c12 (stereo partly drawn) 1.68

Now consider OCC1COCCN(c2nc(OC[C@@]34CCCN3C[C@H](F)C4)nc3c(F)c(-c4cc(O)cc5ccc(F)c(Br)c45)ncc23)C1 (stereo partly drawn) and answer again. 1.91

What do you get for CCc1c(F)ccc2cc(O)cc(-c3ncc4c(N5CCCOC(CO)C5)nc(OC[C@@]56CCCN5C[C@H](F)C6)nc4c3F)c12 (stereo partly drawn) ? 0.60

Now the compound CCc1c(F)ccc2cc(O)cc(-c3ncc4c(N5CCCC6(CC(=O)NC6=O)C5)nc(OC[C@@]56CCCN5C[C@H](F)C6)nc4c3F)c12 (stereo partly drawn) 1.11

* * *

Exercise: state measured pIC50 for each of the compounds provided.
# System: pERK in ASPC1 cells
# TEST NAME: Inhibition of KRas phosphorylation of ERK (Cisbio HTRF pERK assay)
# TEST CONTEXT: Homo sapiens, ASPC1, read-out: Inhibition (HTRF IC50) of KRas-mediated Phosphorylation of ERK, AsPC-1
The quantity pIC50 is defined as the negative base-10 logarithm of the molar concentration.

What does the data say about its pIC50? Entry: CCc1c(F)ccc2cc(O)cc(-c3ncc4c(N5CCOCC(C)(O)C5)nc(OC[C@@]56CCCN5C[C@H](F)C6)nc4c3F)c12 (stereo partly drawn) 8.40

What about this compound? CCc1c(F)ccc2cc(O)cc(-c3ncc4c(N5CCC[C@@](C)(O)C5)nc(OC[C@]56CCCN5[C@H](CO)CC6)nc4c3F)c12 7.51

Same for O=C1NC(=O)C2CN(c3nc(OC[C@@]45CCCN4C[C@H](F)C5)nc4c(F)c(-c5cc(O)cc6ccc(F)c(Br)c56)ncc34)CC12 (stereo partly drawn) 6.87

Now the compound C#Cc1c(F)ccc2cc(O)cc(-c3ncc4c(N5CCCn6nc(C(=O)N(C)C)cc6C5)nc(OC[C@@]56CCCN5C[C@H](F)C6)nc4c3F)c12 7.60

Try this compound next: CCc1c(F)ccc2cc(O)cc(-c3ncc4c(N5CC6C(=O)NC(=O)C6(C)C5)nc(OC[C@@]56CCCN5C[C@H](F)C6)nc4c3F)c12 (stereo partly drawn) 6.26

Consider next the compound O=C1NC(=O)[C@]2(CCCN(c3nc(OC[C@@]45CCCN4C[C@H](F)C5)nc4c(F)c(-c5cc(O)cc6ccc(F)c(Cl)c56)ncc34)C2)N1 in the same way. 6.32

Proceed to CCc1c(F)ccc2cc(O)cc(-c3ncc4c(N5CCCn6nc(N)cc6C5)nc(OC[C@@]56CCCN5C[C@H](F)C6)nc4c3F)c12 6.90

Now try CCc1c(F)ccc2cc(O)cc(-c3ncc4c(N5CCCC6(CCC(F)(F)C6)C5)nc(OC[C@@]56CCCN5C[C@H](F)C6)nc4c3F)c12 (stereo partly drawn) . 6.84

Repeat with CCc1c(F)ccc2cc(O)cc(-c3ncc4c(N5CCC[C@@]6(CNC(=O)N6)C5)nc(OC[C@@]56CCCN5C[C@H](F)C6)nc4c3F)c12 7.42

Same read-out for C#Cc1c(F)ccc2cc(O)cc(-c3ncc4c(N5CCCC6(CNC6=O)C5)nc(OC[C@@]56CCCN5C[C@H](F)C6)nc4c3F)c12 (stereo partly drawn) ? 5.93

And what about the compound O=C1NC(=O)C2(CCCN(c3nc(OC[C@@]45CCCN4C[C@H](F)C5)nc4c(F)c(-c5cc(O)cc6ccc(F)c(F)c56)ncc34)C2)N1 (stereo partly drawn) ? 5.77

These entries and their values trace back to patent US12398154B2.
